- target.entity: CA IX catalytic domain protein (CA9-CD) (human, UniProt Q16790 138-391)
- measurement.protocol: ELISA on CA9-CD (catalytic domain)
Listing of entries alongside the reported OD.
Numbers only here, please. The scale is OD.

[[record]]
binder = "AB-MN-22.18 (antibody, human IgG2, V domains shown, also called AX014H22-18) VH: QVQLQESGPGLVKPSQTLSLTCTVSGGSISSGGYYWNWIRQHPGKGLEWIGYIYYSGSTYYNPSLKSRVTISVDTSKNQFSLKLSSVTAADTAVYYCARTYYDILTGYPDAFDIWGQGTMVTVSS VL: DIQMTQSPSSLSASVGDRVTITCRASQDIRNDLGWYQQKPGKAPKRLICAASSLQSGVPSSFSGSGSGTEFTLTISSLQPEDFATYYCLQHNSYPWTFGQGTKVEIK"
readout_number = 2.75

[[record]]
binder = "AB-MN-21.17.1 (antibody, human IgG1, V domains shown, also called 21.17.1 I; AX014H21-17-1) VH: QVQLQESGPGLVKPSETLSLTCTVSGGSISSYYWSWIRQPAGKGLEWIGRIYTSGSTNYNPSLKSRVTMSVDTSKNQFSLKLSSVTAADTAVYYCARDGQWLEDYGMDVWGQGTTVTV VL: EIVLTQSPGTLSLSPGERATLSCWASQSVFSNYLAWYQQKPGQAPRLLIYGASSRATGIPDRFSGSGSGTDFPLTISRLEPEDFAVYYCQQYGSSPLTFGGGTKVEIK"
readout_number = 2.66


Query: Record request: OD value, item AB-MN-XG1-141 (antibody, human IgG1, V domains shown, also called MN141) VH: QVQLQESGPGLVKPSETLSLTCSVSGGSISSYYWSWIRQPPGKGLEWIGYIYYSGSTNYNPSLKSRVTISVDTSNNHFSLKLSSVTAADTAVYYCARDTRTIFGVVSGMDVWGQGTTVTVSS VL: EIVLTQSPGTLSLSPGERATLSCRTSQTVYSTYLAWYQQKPGQAPRLLIYGASSRATGIPDRFSGSGSGTDFTLTISRLEPEDFAVFYCQHYGRSLTFGGGTKVEIK
Result: 2.56

Query: Record request: OD value, item AB-MN-22.29 (antibody, human IgG2, V domains shown, also called AX014H22-29) VH: QVQLQESGPGLVKPSETLSLTCTVSGGSISSYYWSWIRQPAGKGLEWIGRIYTSGSTNYNPSLKSRVTMSVDTSKNQFSLKLSSVTAADTAVYYCARDGQWLEDYGMDVWGQGTTVTVSS VL: DIQMTQSPSSVSASVGDRVTITCRASQGISSWLAWFQQKPGKAPKLLIYAASSLQSGVPSRFSGSGSGTDFTLTISSLQPEDFATYYCQQANSFPITFGQGTRLEIK
Result: 2.52
